A compilation of published IC50 results with human ACC2 (Homo sapiens (Human)).
Readout kind: IC50 (nM)

[[record]]
compound = "CCC(C)Oc1nccc(C#Cc2ccc(CC(C)NC(C)=O)cc2)n1 (stereo not drawn)"
readout_kind = "IC50"
assay_result = 3600

[[record]]
compound = "CC(=O)NC(C)Cc1ccc(C#Cc2cnc(OCc3cncs3)nc2)cc1 (stereo not drawn)"
readout_kind = "IC50"
assay_result = 1500

[[record]]
compound = "CC(=O)N[C@@H](C)c1ccc(OC2CCN(c3cc(OCC4CC4)ncc3F)C2)cc1 (stereo partly drawn)"
readout_kind = "IC50"
assay_result = 59

[[record]]
compound = "CC(=O)NC(C)Cc1ccc(C#Cc2cnc(OCCF)nc2)cc1 (stereo not drawn)"
readout_kind = "IC50"
assay_result = 1100

[[record]]
compound = "C=C(C)CNC(=O)C(C)c1ccc(O[C@@H]2CCN(c3nc(N(C)C)ncc3F)C2)cc1 (stereo partly drawn)"
readout_kind = "IC50"
assay_result = 454

[[record]]
compound = "CCOc1ccc(C#Cc2ccc(CC(C)NC(=O)C3(O)CC3)cc2)cc1 (stereo not drawn)"
readout_kind = "IC50"
assay_result = 560

[[record]]
compound = "CC(=O)NC(C)Cc1ccc(C#Cc2ccnc(NC(C)C)n2)cc1 (stereo not drawn)"
readout_kind = "IC50"
assay_result = 12700

[[record]]
compound = "CC(C(=O)NC1CC1C)c1ccc(O[C@@H]2CCN(c3ccc(OCC4CC4(F)F)cn3)C2)cc1 (stereo partly drawn)"
readout_kind = "IC50"
assay_result = 220

[[record]]
compound = "CC(=O)N[C@@H](C)c1ccc(OC2CCN(c3ncc(OC4CC4)cc3F)C2)cc1 (stereo partly drawn)"
readout_kind = "IC50"
assay_result = 463

